chromatographic logD reference
Experiment: CHI Log D procedure
Assay type: physicochemical
Conditions: pH 7.4, CHI Log D
ENDPOINT: chromatographic logD

COMPOUND | VALUE MEASURED
CC(=O)N1CCC[C@]12CC=CCCCC1(CCCC=CCCCOC(=O)N3CC[C@@](C(=O)N[C@@H](Cc4ccccc4Cl)C(=O)N[C@@H](Cc4csc5ccccc45)C(=O)N[C@@H](CCC(N)=O)C(N)=O)(C3)NC(=O)[C@H](CC(C)C)NC(=O)[C@H](Cc3ccccc3)NC(=O)[C@H](C)NC(=O)[C@H](C)NC(=O)[C@H](CCC(=O)O)NC(=O)[C@H](CC(=O)O)NC1=O)NC(=O)[C@H](CC(C)(C)C)NC(=O)[C@H](CC(=O)O)NC2=O (some centres unmarked) | 1.64
CC(=O)N[C@@H](Cc1ccccc1)C(=O)N[C@@H](CC(=O)O)C(=O)N[C@@H](C)C(=O)N[C@]1(C)CCCN(C)C(=O)OCC=CCCC[C@@](C)(C(=O)N[C@@H](Cc2ccccc2)C(=O)N[C@@H](Cc2c[nH]c3ccccc23)C(=O)N[C@@H](CCC(N)=O)C(N)=O)NC(=O)[C@H](C(C)C)NC(=O)[C@H](Cc2ccccc2)NC(=O)[C@H](C)NC(=O)[C@H](C)NC(=O)[C@H](CC(=O)O)NC(=O)[C@H](CC(=O)O)NC1=O | 1.15
CC(=O)N1CCC[C@]12CC=CCCCC1(CCCC=CCCCOC(=O)N3CC[C@@](C(=O)N[C@@H](Cc4ccccc4Cl)C(=O)N[C@@H](Cc4csc5ccccc45)C(=O)N[C@@H](C(N)=O)[C@H](C)O)(C3)NC(=O)[C@H]([C@@H](C)O)NC(=O)[C@H](Cc3ccccc3)NC(=O)[C@H](C)NC(=O)[C@H](C)NC(=O)[C@H](CCC(=O)O)NC(=O)[C@H](CC(=O)O)NC1=O)NC(=O)[C@H](CC(C)(C)C)NC(=O)[C@H](CC(=O)O)NC2=O (some centres unmarked) | 2.52
CC(=O)N1CCC[C@]12CC=CCCCC1(CCCC=CCCCCCC[C@@](C)(C(=O)N[C@@H](Cc3cccc(C)c3)C(=O)N[C@@H](Cc3csc4ccccc34)C(=O)N[C@@H](CCC(N)=O)C(N)=O)NC(=O)[C@H](C(C)C)NC(=O)[C@H](Cc3ccccc3)NC(=O)[C@H](C)NC(=O)[C@H](C)NC(=O)[C@H](CCC(=O)O)NC(=O)[C@H](CC(=O)O)NC1=O)NC(=O)[C@H](C)NC(=O)[C@H](CC(=O)O)NC2=O (some centres unmarked) | 4.07
CC(=O)N1CCC[C@]12CC=CCCCC1(CCCC=CCCCCCC[C@@](C)(C(=O)N[C@@H](CCc3ccc(O)cc3)C(=O)N[C@@H](Cc3c[nH]c4ccccc34)C(=O)N[C@@H](CCC(N)=O)C(N)=O)NC(=O)[C@H](C(C)C)NC(=O)[C@H](Cc3ccccc3)NC(=O)[C@H](C)NC(=O)[C@H](C)NC(=O)[C@H](CC(=O)O)NC(=O)[C@H](CC(=O)O)NC1=O)NC(=O)[C@H](C)NC(=O)[C@H](CC(=O)O)NC2=O (some centres unmarked) | 1.81

###

Assay: Solubility in PBS
Assay type: physicochemical
ENDPOINT: Solubility (µM)

MOLECULE | VALUE MEASURED
CC[C@H](C)[C@@H]1NC(=O)[C@H](CC(=O)O)NC(=O)[C@]2(CC=CCCCC3(CCCC=CCCCCCC[C@@](C)(C(=O)N[C@@H](Cc4ccccc4)C(=O)N[C@@H](Cc4csc5ccccc45)C(N)=O)NC(=O)[C@H](CC(N)=O)NC(=O)[C@H](Cc4ccccc4)NC(=O)[C@H](C)NC(=O)[C@H](C)NC(=O)[C@H](CCC(=O)O)NC(=O)[C@H](CC(=O)O)NC3=O)NC1=O)CCCN2C(C)=O (some centres unmarked) [I-714] | 43
CC(=O)N1CCC[C@]12CC=CCCCC1(CCCC=CCCCCCC[C@@](C)(C(=O)N[C@@H](Cc3ccccc3)C(=O)N[C@@H](Cc3c[nH]c4ccccc34)C(=O)N[C@@H](CCC(N)=O)C(N)=O)NC(=O)[C@H](C(C)C)NC(=O)[C@H](Cc3ccccc3)NC(=O)[C@H](C)NC(=O)[C@H](C)NC(=O)[C@H](Cc3c[nH]cn3)NC(=O)[C@H](CC(=O)O)NC1=O)NC(=O)[C@H](C)NC(=O)[C@H](CC(=O)O)NC2=O (some centres unmarked) | 10
CC[C@@H]1NC(=O)[C@H](CC(=O)O)NC(=O)[C@]2(CC=CCCCC3(CCCC=CCCCCCC[C@@](C)(C(=O)N[C@@H](Cc4ccccc4)C(=O)N[C@@H](Cc4csc5ccccc45)C(=O)N[C@@H](Cc4c[nH]cn4)C(N)=O)NC(=O)[C@H](CC(N)=O)NC(=O)[C@H](Cc4ccccc4)NC(=O)[C@H](C)NC(=O)[C@H](C)NC(=O)[C@H](CC(=O)O)NC(=O)[C@H](CC(=O)O)NC3=O)NC1=O)CCCN2C(C)=O (some centres unmarked) [I-574] | 48
CC(=O)N1CCC[C@]12CC=CCCCC1(CCCC=CCCCCCC[C@@](C)(C(=O)N[C@@H](Cc3ccccc3Cl)C(=O)N[C@@H](Cc3csc4ccccc34)C(=O)N[C@@H](Cc3c[nH]nn3)C(N)=O)NC(=O)[C@H](CC(C)C)NC(=O)[C@H](Cc3ccccc3)NC(=O)[C@H](C)NC(=O)[C@H](C)NC(=O)[C@H](CC(=O)O)NC(=O)[C@H](CC(=O)O)NC1=O)NC(=O)[C@H](CC(C)(C)C)NC(=O)[C@H](CC(=O)O)NC2=O (some centres unmarked) | 10
CC[C@H](C)[C@@H]1NC(=O)[C@H](CC(=O)O)NC(=O)[C@]2(CC=CCCCC3(CCCC=CCCCCCC[C@@](C)(C(=O)N[C@@H](Cc4ccsc4)C(=O)N[C@@H](Cc4csc5ccccc45)C(N)=O)NC(=O)[C@H](CC(N)=O)NC(=O)[C@H](Cc4ccccc4)NC(=O)[C@H](C)NC(=O)[C@H](C)NC(=O)[C@H](CCC(=O)O)NC(=O)[C@H](CC(=O)O)NC3=O)NC1=O)CCCN2C(C)=O (some centres unmarked) [I-720] | 33

The values you see were collected from patent US20240116985A1.
